z-score overview
assay: DUSP6 inhibitors restoring Erk phosphorylation by chemical complementation, primary imaging in DUSP6-transfected HeLa (AID 609); settings: HeLa MKP-3 transfected, phospho-Erk imaging KS statistic; measured here: nuclear pErk red intensity z-score; at 10 µM; stronger effect = higher value; cells stimulated with TPA for 15 min
I only need the number, thanks.

C=CCNc1nc(N2CCOCC2)c(C#N)c2c1CN(C)CC2; 0.0349
CC(C)OCCCNc1ncnc2c1cnn2-c1ccccc1; -0.0471
CC(=O)N1CCN(C2c3cccc4cccc(c34)C2NS(=O)(=O)c2ccccc2)CC1 (centres undefined); -0.633
COc1ccc(C2NC3=C(CCC3)C3(C#N)C(OC)(OC)N=C(N)C23C#N)cc1 (centres undefined); 0.179
CCCCc1nc(N2CCOCC2)c(C#N)c2c1CCCC2; 0.364

Memo: CCO/C(C)=N/n1c2nc3ccccc3nc2c2c(=O)n(Cc3ccccc3Cl)c(C)nc21 , reported z-score: -0.0329

Memo: CCN(CC)CCCN1C(=O)C(=O)/C(=C(/O)c2ccc3c(c2)CC(C)O3)C1c1ccncc1 (centres undefined) , reported z-score: -1.04

Memo: CCCCOC(=O)CCc1nc2ccccc2[nH]1 , reported z-score: 1.13

Memo: O=c1cc(O)nc2n1CCCS2 , reported z-score: 0.757

Memo: CCCn1c(SCC#N)nc2c(c1=O)C1(CCCC1)Cc1ccccc1-2 , reported z-score: -0.241

Memo: COC(=O)/C(C#N)=C1/SC=C(C)N1c1ccccc1 , reported z-score: -0.208
